molecular target: GST-human TopBP1 BRCT4/5 (549-746) (human, UniProt Q92547 549-746); assay: fluorescence polarisation
Sequence (Q92547 549-746): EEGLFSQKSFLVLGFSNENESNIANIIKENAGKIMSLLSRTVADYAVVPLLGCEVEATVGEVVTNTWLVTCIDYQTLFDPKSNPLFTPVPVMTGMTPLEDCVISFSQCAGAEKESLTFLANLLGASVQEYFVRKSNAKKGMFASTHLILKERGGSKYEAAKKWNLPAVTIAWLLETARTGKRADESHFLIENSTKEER
Square brackets hold non-standard residues; d marks the D form. * marks the point of attachment. FITC = O=C1OC2(c3ccc(O)cc3Oc3cc(O)ccc32)c2ccc(NC(=S)*)cc21; pS = N[C@@H](COP(=O)(O)O)C(=O)O
Quantity kind: pKd
The quantity pKd is defined as the negative base-10 logarithm of the molar concentration.

Incoming: Please give measured pKd of the following entry: {FITC}-DTDFVPP[pS]PEEII-NH2 [FITC-labelled BLM pSer304 peptide (FITC-DTDFVPPpSPEEII-NH2)]
Outgoing: 5.22
